Measurement record for Staphylococcus aureus ATCC 29213; quantity recorded: MIC.

compound: Cc1cc(O)cc2oc3cc(O)cc(C)c3c12 [Compound 10, 3,7-dihydroxy-1,9-dimethyldibenzofuran]
experimental_target: Staphylococcus aureus ATCC 29213
result_comparator: =
MIC [µM]: 25
//
compound: O=C(O)c1cn(C2CC2)c2cc(N3CCNCC3)c(F)cc2c1=O [ciprofloxacin, Ciprofloxacin, reference compound]
experimental_target: Staphylococcus aureus ATCC 29213
result_comparator: =
MIC [µM]: 0.8
//
compound: COc1c(O)cc(C)cc1Oc1cc(C)cc(O)c1
experimental_target: Staphylococcus aureus ATCC 29213
result_comparator: >
MIC [µM]: 200
//
compound: CCC(C)C=C(C)C=CC(=O)Cc1cc(O)c(C)c(O)c1C(=O)O (stereo not shown)
experimental_target: Staphylococcus aureus ATCC 29213
result_comparator: >
MIC [µM]: 200
